A collection of variants and their measured abundance fitness
B1: Histone H1t, residues 44 to 112; numbered along this chain, P22492 (parent)
chain: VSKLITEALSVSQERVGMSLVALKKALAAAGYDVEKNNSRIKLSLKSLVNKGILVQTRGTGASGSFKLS

# Variants of: B1
# measurement_description: abundance fitness (aPCA) (normalised: wild type 0, dead -1); higher = more abundant; growth selection in yeast, the domain comes from the species named
# settings: Homo sapiens
quantity: abundance fitness

INSERT INTO measurements (variant_id, result) VALUES
  ('I53F', -0.031),
  ('K42F', -0.413),
  ('A30N', -0.271),
  ('I53G', -0.363),
  ('L54F', -0.036),
  ('N38P', -0.168),
  ('L23C', -0.363),
  ('S63T', 0.004),
  ('N37S', -0.013),
  ('T57I', -0.147),
  ('N50S', 0.092),
  ('L27T', -0.696),
  ('R58L', -0.073),
  ('V55A', -0.106),
  ('D33A', 0.063),
  ('L43N', 0.266),
  ('K36S', -0.25),
  ('K36L', -0.358),
  ('N38W', 0.105),
  ('A22Q', -0.003),
  ('N38S', 0.044),
  ('A29M', -0.097);
